# Test system: 3T3-L1
# ASSAY_NAME: [1-3H]-2-deoxy-D-glucose uptake in 3T3 L1 adipocytes
# Assay type: functional, Mus musculus
# Set-up: reference not given here
ENDPOINT_LABEL: Activity
The answer consists of two parts: a number and, after it, its unit.

Notebook: pull reported Activity for 3T3-L1, entry `O=C(OC[C@H]1OC[C@H](OC(=O)c2cc(O)c(O)c(O)c2)[C@@H](OC(=O)c2cc(O)c(O)c(O)c2)[C@@H]1OC(=O)c1cc(O)c(O)c(O)c1)c1cc(O)c(O)c(O)c1`
5 Bq

Notebook: pull reported Activity for 3T3-L1, entry `O=C(O[C@@H]1OC[C@@H](OC(=O)c2cc(O)c(O)c(O)c2)[C@H](OC(=O)c2cc(O)c(O)c(O)c2)[C@H]1OC(=O)c1cc(O)c(O)c(O)c1)c1cc(O)c(O)c(O)c1`
21 Bq

Notebook: pull reported Activity for 3T3-L1, entry `O=C(OC[C@H]1O[C@H](OC(=O)c2cc(O)c(O)c(O)c2)[C@H](OC(=O)c2cc(O)c(O)c(O)c2)[C@H](OC(=O)c2cc(O)c(O)c(O)c2)[C@@H]1OC(=O)c1cc(O)c(O)c(O)c1)c1cc(O)c(O)c(O)c1`
23 Bq

###

# Tested on: 3T3-L1
# ASSAY_NAME: [1-3H]-2-deoxy-D-glucose uptake in 3T3 L1 adipocytes
# Assay type: functional, Mus musculus
# Set-up: reference not given here
Outcome label depends on Activity relative to 30 Bq: at/above gives MET, below gives NOT MET.

I'd appreciate it if you could say whether `COC(=O)c1cc(O)c(O)c(O)c1` has Activity at least equal to 30 Bq.
NOT MET

I'd appreciate it if you could say whether `O=C(O[C@H]1OC[C@@H](OC(=O)c2cc(O)c(O)c(O)c2)[C@@H](OC(=O)c2cc(O)c(O)c(O)c2)[C@H]1OC(=O)c1cc(O)c(O)c(O)c1)c1cc(O)c(O)c(O)c1` has Activity at least equal to 30 Bq.
NOT MET

I'd appreciate it if you could say whether `O=C(O[C@@H]1OC[C@@H](OC(=O)c2cc(O)c(O)c(O)c2)[C@@H](OC(=O)c2cc(O)c(O)c(O)c2)[C@H]1OC(=O)c1cc(O)c(O)c(O)c1)c1cc(O)c(O)c(O)c1` has Activity at least equal to 30 Bq.
NOT MET

I'd appreciate it if you could say whether `O=C(O)c1cc(O)c(O)c(O)c1` has Activity at least equal to 30 Bq.
MET

I'd appreciate it if you could say whether `O=C(OC[C@H]1O[C@H](OC(=O)c2cc(O)c(O)c(O)c2)[C@H](OC(=O)c2cc(O)c(O)c(O)c2)[C@@H](OC(=O)c2cc(O)c(O)c(O)c2)[C@@H]1OC(=O)c1cc(O)c(O)c(O)c1)c1cc(O)c(O)c(O)c1` has Activity at least equal to 30 Bq.
MET

I'd appreciate it if you could say whether `O=C(OC[C@@H]1C[C@H](OC(=O)c2cc(O)c(O)c(O)c2)[C@@H](OC(=O)c2cc(O)c(O)c(O)c2)[C@@H](OC(=O)c2cc(O)c(O)c(O)c2)O1)c1cc(O)c(O)c(O)c1` has Activity at least equal to 30 Bq.
NOT MET

###

Provide the reported Activity of each item.
# System: 3T3-L1
# ASSAY_NAME: [1-3H]-2-deoxy-D-glucose uptake in 3T3 L1 adipocytes
# Format: functional, Mus musculus
# Set-up: reference not given here
Hi! Could you send only the number? It should be in Bq, unit omitted.

Entry under review: `O=C(OC[C@H]1O[C@H](OC(=O)c2ccc(O)cc2)[C@H](OC(=O)c2ccc(O)cc2)[C@@H](OC(=O)c2ccc(O)cc2)[C@@H]1OC(=O)c1ccc(O)cc1)c1ccc(O)cc1` . Reported Activity?
30

Entry under review: `OC[C@H]1O[C@H](O)[C@H](O)[C@@H](O)[C@@H]1O` . Reported Activity?
34

Entry under review: `O=C(OC[C@H]1O[C@@H](OC(=O)c2cc(O)c(O)c(O)c2)[C@H](OC(=O)c2cc(O)c(O)c(O)c2)[C@@H](OC(=O)c2cc(O)c(O)c(O)c2)[C@H]1OC(=O)c1cc(O)c(O)c(O)c1)c1cc(O)c(O)c(O)c1` . Reported Activity?
19

Entry under review: `O=C(O[C@@H]1OC[C@@H](OC(=O)c2cc(O)c(O)c(O)c2)[C@H](OC(=O)c2cc(O)c(O)c(O)c2)[C@@H]1OC(=O)c1cc(O)c(O)c(O)c1)c1cc(O)c(O)c(O)c1` . Reported Activity?
7

Entry under review: O=C(OC1OC[C@H](OC(=O)c2cc(O)c(O)c(O)c2)[C@H](OC(=O)c2cc(O)c(O)c(O)c2)[C@H]1OC(=O)c1cc(O)c(O)c(O)c1)c1cc(O)c(O)c(O)c1 (single isomer, unassigned; 65) . Reported Activity?
14

###

Provide the reported Activity of each item.
# System: 3T3-L1
# ASSAY_NAME: [1-3H]-2-deoxy-D-glucose uptake in 3T3 L1 adipocytes
# Assay type: functional, Mus musculus
# Set-up: reference not given here
Hi! Could you send only the number? It should be in Bq, unit omitted.

Entry under review: `O=C(OC[C@H]1O[C@@H](OC(=O)c2cc(O)c(O)c(O)c2)C[C@@H](OC(=O)c2cc(O)c(O)c(O)c2)[C@@H]1OC(=O)c1cc(O)c(O)c(O)c1)c1cc(O)c(O)c(O)c1` . Reported Activity?
15

Entry under review: O=c1oc2c(O)c(O)cc3c(=O)oc4c(O)c(O)cc1c4c23 [ELLAGIC ACID] . Reported Activity?
27

Entry under review: `O=C(OC[C@H]1O[C@H](OC(=O)c2cc(O)c(O)c(O)c2)C[C@@H](OC(=O)c2cc(O)c(O)c(O)c2)[C@@H]1OC(=O)c1cc(O)c(O)c(O)c1)c1cc(O)c(O)c(O)c1` . Reported Activity?
29

Entry under review: `O=C(OC[C@H]1O[C@@H](OC(=O)c2cc(O)cc(O)c2)[C@H](OC(=O)c2cc(O)cc(O)c2)[C@@H](OC(=O)c2cc(O)cc(O)c2)[C@@H]1OC(=O)c1cc(O)cc(O)c1)c1cc(O)cc(O)c1` . Reported Activity?
30

Entry under review: `O=C(OC[C@H]1O[C@@H](OC(=O)c2cc(O)c(O)c(O)c2)[C@@H](OC(=O)c2cc(O)c(O)c(O)c2)[C@@H](OC(=O)c2cc(O)c(O)c(O)c2)[C@@H]1OC(=O)c1cc(O)c(O)c(O)c1)c1cc(O)c(O)c(O)c1` . Reported Activity?
19

Entry under review: `O=C(O[C@H]1OC[C@@H](OC(=O)c2cc(O)c(O)c(O)c2)[C@H](OC(=O)c2cc(O)c(O)c(O)c2)[C@@H]1OC(=O)c1cc(O)c(O)c(O)c1)c1cc(O)c(O)c(O)c1` . Reported Activity?
21

Entry under review: `O=C(OC[C@@H]1C[C@H](OC(=O)c2cc(O)c(O)c(O)c2)[C@@H](OC(=O)c2cc(O)c(O)c(O)c2)[C@H](OC(=O)c2cc(O)c(O)c(O)c2)O1)c1cc(O)c(O)c(O)c1` . Reported Activity?
30

Entry under review: `O=C(OC[C@H]1O[C@H](OC(=O)c2ccccc2)[C@H](OC(=O)c2ccccc2)[C@@H](OC(=O)c2ccccc2)[C@@H]1OC(=O)c1ccccc1)c1ccccc1` . Reported Activity?
34

Entry under review: `O=C(OC[C@H]1O[C@H](OC(=O)c2cc(O)cc(O)c2)[C@H](OC(=O)c2cc(O)cc(O)c2)[C@@H](OC(=O)c2cc(O)cc(O)c2)[C@@H]1OC(=O)c1cc(O)cc(O)c1)c1cc(O)cc(O)c1` . Reported Activity?
16

Entry under review: `O=C(O[C@H]1O[C@H](CCl)[C@@H](OC(=O)c2cc(O)c(O)c(O)c2)[C@H](OC(=O)c2cc(O)c(O)c(O)c2)[C@H]1OC(=O)c1cc(O)c(O)c(O)c1)c1cc(O)c(O)c(O)c1` . Reported Activity?
181

Entry under review: `O=C(OC[C@H]1O[C@H](OC(=O)c2cc(O)c(O)c(O)c2)[C@@H](OC(=O)c2cc(O)c(O)c(O)c2)[C@@H](OC(=O)c2cc(O)c(O)c(O)c2)[C@@H]1OC(=O)c1cc(O)c(O)c(O)c1)c1cc(O)c(O)c(O)c1` . Reported Activity?
20

###

# Test system: 3T3-L1
# ASSAY_NAME: [1-3H]-2-deoxy-D-glucose uptake in 3T3 L1 adipocytes
# Format: functional, Mus musculus
# Set-up: reference not given here
ENDPOINT_LABEL: log10 Activity (log10 of the value in Bq)
Response schema: value (number) is log10 of Activity in units of Bq.

Entry under review: `CC(=O)OC[C@H]1O[C@H](OC(C)=O)[C@H](OC(C)=O)[C@@H](OC(C)=O)[C@@H]1OC(C)=O` . Reported log10 Activity?
1.49

Entry under review: `O=C(OC[C@H]1O[C@@H](OC(=O)c2ccc(O)c(O)c2)[C@H](OC(=O)c2ccc(O)c(O)c2)[C@@H](OC(=O)c2ccc(O)c(O)c2)[C@@H]1OC(=O)c1ccc(O)c(O)c1)c1ccc(O)c(O)c1` . Reported log10 Activity?
1.30

Entry under review: `O=C(OC[C@H]1O[C@@H](OC(=O)c2cc(O)c(O)c(O)c2)[C@H](OC(=O)c2cc(O)c(O)c(O)c2)[C@H](OC(=O)c2cc(O)c(O)c(O)c2)[C@@H]1OC(=O)c1cc(O)c(O)c(O)c1)c1cc(O)c(O)c(O)c1` . Reported log10 Activity?
1.53

Entry under review: `O=C(OC[C@H]1O[C@H](OC(=O)c2cc(O)c(O)c(O)c2)[C@H](OC(=O)c2cc(O)c(O)c(O)c2)[C@@H](OC(=O)c2cc(O)c(O)c(O)c2)[C@H]1OC(=O)c1cc(O)c(O)c(O)c1)c1cc(O)c(O)c(O)c1` . Reported log10 Activity?
1.34

Entry under review: O=C(OC[C@H]1OC(OC(=O)c2cc(O)c(O)c(O)c2)[C@H](OC(=O)c2cc(O)c(O)c(O)c2)[C@@H](OC(=O)c2cc(O)c(O)c(O)c2)[C@@H]1OC(=O)c1cc(O)c(O)c(O)c1)c1cc(O)c(O)c(O)c1 (single isomer, unassigned) . Reported log10 Activity?
2.03

Entry under review: `C[C@H]1O[C@H](OC(=O)c2cc(O)c(O)c(O)c2)[C@H](OC(=O)c2cc(O)c(O)c(O)c2)[C@@H](OC(=O)c2cc(O)c(O)c(O)c2)[C@@H]1OC(=O)c1cc(O)c(O)c(O)c1` . Reported log10 Activity?
2.06

Entry under review: `O=C(OC[C@H]1O[C@@H](OC(=O)c2cc(O)c(O)c(O)c2)[C@H](OC(=O)c2cc(O)c(O)c(O)c2)C[C@@H]1OC(=O)c1cc(O)c(O)c(O)c1)c1cc(O)c(O)c(O)c1` . Reported log10 Activity?
0.85

Entry under review: `O=C(OC[C@H]1O[C@H](OC(=O)c2cc(O)c(O)c(O)c2)[C@H](OC(=O)c2cc(O)c(O)c(O)c2)C[C@@H]1OC(=O)c1cc(O)c(O)c(O)c1)c1cc(O)c(O)c(O)c1` . Reported log10 Activity?
1.04

Entry under review: `O=C(O[C@H]1O[C@H](CO)[C@@H](OC(=O)c2cc(O)c(O)c(O)c2)[C@H](OC(=O)c2cc(O)c(O)c(O)c2)[C@H]1OC(=O)c1cc(O)c(O)c(O)c1)c1cc(O)c(O)c(O)c1` . Reported log10 Activity?
2.16

Entry under review: `C[C@H]1O[C@@H](OC(=O)c2cc(O)c(O)c(O)c2)[C@H](OC(=O)c2cc(O)c(O)c(O)c2)[C@@H](OC(=O)c2cc(O)c(O)c(O)c2)[C@@H]1OC(=O)c1cc(O)c(O)c(O)c1` . Reported log10 Activity?
1.18
